Test system: COLO 205 colon
method_description: NCI-60 one-dose screen, 48 h
conditions_used: 10 µM unless noted
The panel holds about 83,000 compounds, 20% with a hit somewhere; the sample as a whole holds those more often. Activity calls are given as the source filed them. The calls were made as follows: active = growth percent below 10; inactive = the rest.
Give your call using only these classes: yes (1) for active, no (0) for inactive

Past entries and their recorded results:
[
  {
    "molecule": "C=C(CC(=O)OC)C(C)=O",
    "group_label": "no (0)"
  },
  {
    "molecule": "O=c1[nH]c(CN2CCN(c3cccc(Cl)c3)CC2)nc2cc(Cl)ccc12",
    "group_label": "no (0)"
  },
  {
    "molecule": "N#C/C(C(=O)c1ccccc1)=C1/C(=O)Nc2ccc(F)cc21",
    "group_label": "no (0)"
  },
  {
    "molecule": "O=C1COCCN1c1ccc(Nc2nc(Cl)nc(N3CCOCC3)n2)cc1",
    "group_label": "no (0)"
  },
  {
    "molecule": "Nc1nc(Cl)c2ncn(Cc3cc4c(cc3I)OCO4)c2n1",
    "group_label": "no (0)"
  },
  {
    "molecule": "Cc1ccc(S(=O)(=O)Oc2ccc(Br)cc2Br)cc1",
    "group_label": "no (0)"
  }
]

Let's switch to this molecule now.
GET /call?item= CC(C)(C)OC(=O)N1C=C/C(=C\Cn2cc(-c3ccccc3)nn2)CC1 returns the recorded outcome of this test.
no (0)

----------
System: CCRF-CEM leukemia
method_description: NCI-60 one-dose screen, 48 h
conditions_used: 10 µM unless noted
Compounds without any hit were thinned out: in the full panel of roughly 83,000, 20% have a hit. Activity calls are given as the source filed them. Rule for the calls: active = growth percent below 10; inactive = the rest.
Classes to choose from: 1 (yes) (active), 0 (no) (inactive)

Examples with answers:
[
  {
    "compound": "C[n+]1cccc(NC(=O)c2ccc3ccc4ccc(C(=O)Nc5ccc[n+](C)c5)nc4c3n2)c1",
    "target_of_assay": "CCRF-CEM leukemia",
    "group_label": "0 (no)"
  },
  {
    "compound": "O=C(N/N=C/c1ccc([N+](=O)[O-])cc1)c1ccc(Br)o1",
    "target_of_assay": "CCRF-CEM leukemia",
    "group_label": "0 (no)"
  },
  {
    "compound": "NNC(=O)c1ccc(C(=O)NN)cc1",
    "target_of_assay": "CCRF-CEM leukemia",
    "group_label": "0 (no)"
  },
  {
    "compound": "CC(C)c1ccc(C(=O)Nc2sc3c(c2C#N)CCC(=O)C3)cc1",
    "target_of_assay": "CCRF-CEM leukemia",
    "group_label": "1 (yes)"
  },
  {
    "compound": "Cc1cc[n+](CCCCCCCCCC[n+]2ccc(C)cc2)cc1",
    "target_of_assay": "CCRF-CEM leukemia",
    "group_label": "0 (no)"
  }
]

// param item: N#Cc1c(N2CCOCC2)nc(=S)[nH]c1-c1ccco1 ; yields the recorded call
0 (no)

Which outcome did this test record for the molecule COc1ccc(/C=C(/C2=NCCN2)n2ccc3ccccc32)cc1 ?
0 (no)

Called result for Cc1cc(C)nc(SCC(=O)Nc2cccc(N=Cc3ccccc3O)c2)n1
0 (no)

// return assay outcome for COc1ccc2c3ccnc(C(F)(F)F)c3n(CCCCN)c2c1
0 (no)

Tell me the assay call for O=C(Nc1ccc(Oc2ccc(F)cc2)c(Cl)c1)c1cccnn1 please.
0 (no)

State the result this test recorded for O=[N+]([O-])c1cc([N+](=O)[O-])c(C(F)(F)F)cc1NN=C(c1ccc(O)cc1)c1ccc(O)cc1 .
0 (no)

// return assay outcome for COc1ccc(NC(=O)Nc2ccc(-c3cccnc3)cc2N2CCC(CO)CC2)cc1
0 (no)

Give the logged outcome of this assay for the following molecule: CCn1cc(-c2ccnc(NCCNS(=O)(=O)c3ccc(Br)cc3)c2)c(-c2cccc(OC)c2)n1
0 (no)

Which outcome did this test record for the molecule CC(C)(C)c1cc(C(=O)N2CCC(C(=O)NCCN)CC2)cc(C(C)(C)C)c1 ?
0 (no)

Record lookup: outcome of this test for O=[N+]([O-])c1cccc(N=NNc2cccc([N+](=O)[O-])c2)c1 ?
0 (no)

From: PubChem BioAssay (NCI)
